Provenance of the data: patent US20210032351A1

Molecular target: T1, human EGFRvIII-hFc protein (human, UniProt P00533 25-645)
T1 construct: extracellular domain; also called immunogen A; hFc-tagged EGFRvIII protein; not shown: human IgG Fc fragment (hFc) of the pCpC vector
Test: ELISA, EGFRvIII-hFc coated
Please respond with reported pEC50 for every item in the list.
Numbers only, as −log10 of the molar value.

Reference set, count: 2
Humanized antibody h63A10A7-23 (antibody, human IgG1, V domains shown, also called VH-g4/VL-g5) VH: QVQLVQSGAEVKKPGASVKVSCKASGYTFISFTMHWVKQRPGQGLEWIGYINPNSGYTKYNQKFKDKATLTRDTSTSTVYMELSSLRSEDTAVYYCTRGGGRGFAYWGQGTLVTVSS VL: DILMTQSPSSLSASVGDRVTITCHASQDINSNIGWLQQKPGKAPKALIYHGTNLEDGVPSRFSGSGSGADYTLTISSLQPEDFATYYCVQYAQFPFTFGQGTKLEIK: 9.48
Humanized antibody h75G7C6-9 (antibody, human IgG1, V domains shown, also called VH-g1/VL-g0) VH: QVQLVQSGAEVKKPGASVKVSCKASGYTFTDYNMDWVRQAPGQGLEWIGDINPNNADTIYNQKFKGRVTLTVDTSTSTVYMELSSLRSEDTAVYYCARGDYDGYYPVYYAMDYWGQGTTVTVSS VL: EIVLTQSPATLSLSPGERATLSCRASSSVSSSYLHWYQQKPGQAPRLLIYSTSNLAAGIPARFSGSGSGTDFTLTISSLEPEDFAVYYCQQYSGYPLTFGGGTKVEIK: 9.24

Now examine the next entry.
Any idea what its pEC50 is? The binder is Humanized antibody h63A10A7-24 (antibody, human IgG1, V domains shown, also called VH-g4/VL-g6) VH: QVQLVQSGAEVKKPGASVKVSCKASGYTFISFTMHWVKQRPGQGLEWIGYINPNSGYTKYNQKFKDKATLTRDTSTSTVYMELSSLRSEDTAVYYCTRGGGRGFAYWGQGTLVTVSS VL: DILMTQSPSSLSASVGDRVTITCHASQDINSNIGWLQQKPGKSFKALIYHGTNLEDGVPSRFSGSGSGTDYTLTISSLQPEDFATYYCVQYAQFPFTFGQGTKLEIK
9.82
